# TARGET OF ASSAY: human Retinoic Acid Receptor beta (RARb), RARB (gene 5915)
# ASSAY OVERVIEW: ATG_RARb_TRANS: Attagene TRANS-FACTORIAL HepG2 Assay for human Retinoic Acid Receptor beta (AID 2283004)
Results filed as inconclusive are left out. Active and inactive are the calls of the source. How the source made its calls: active means hit-call score of the fitted dose curve at least 0.9, where 1 is the maximum; inconclusive means response in the unintended direction; inactive means score below 0.9.
METRIC: outcome

input: Assign outcome to the following record: `FC(F)(F)C(F)(F)C(F)(F)C(F)(F)C(F)(F)C(F)(F)C(F)(F)I`
output: inactive

input: Assign outcome to the following record: `C1COCCN1`
output: inactive

input: Assign outcome to the following record: `C=C(C)C(=O)OCC(F)(F)C(F)(F)C(F)(F)F`
output: inactive
